Where these numbers come from: patent US20210363269A1

I'd appreciate it if you could supply koff values for the items below.
# MEASURED_ON: T1, human SIRP-α v1 D1 domain (human, UniProt P78324 31-149)
# T1 construct: also called human v1
# ASSAY: SPR, Langmuir fit
Numbers only, in s⁻¹.

Look over these answered cases.
>>> test_result("S27 (scFv, V domains shown, also called clone 27; scFv-Fc form of AB27) VH: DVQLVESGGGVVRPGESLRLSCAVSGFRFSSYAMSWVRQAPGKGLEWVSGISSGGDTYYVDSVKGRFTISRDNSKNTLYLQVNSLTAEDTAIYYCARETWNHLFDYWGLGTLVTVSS VL: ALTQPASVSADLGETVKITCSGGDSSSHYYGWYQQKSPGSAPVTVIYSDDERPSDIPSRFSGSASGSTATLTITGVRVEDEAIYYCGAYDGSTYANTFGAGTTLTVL")
"5.81e-05"
>>> test_result("S198 (scFv, V domains shown) VH: DVQLVESGGGVVRPGESLRLSCAASGFSFSSHAMNWVRQAPGEGLEWVSRINSGGGGTDYAESVKGRFTISRDNSENTLYLQMNSLRAEDTAVYYCAKQYDWNGFFDYWGLGALVTVSS VL: ETVLTQSPATLSVSPGERATLSCRASQTVGSKLAWHQQKPGQAPRLLIYDATNRATGIPDRFSGSGSGTDFTLTISSLQTEDSAVYYCQQYYYWPPYRFGGGTKVEIK")
"3.67e-05"
>>> test_result("S60 (scFv, V domains shown, also called clone 60) VH: DVQLVDSGGGVVRPGESLRLSCAASGFTFSSYAMSWVRQAPGKGLEWLAGISAGGSDTYYIDSVKGRFTISRDNSKNSLYLQMNSLTAEDTAVYYCARETWNHLFDYWGLGTLVTVSS VL: ALTQPASVSANPGETVKITCSGGDYYSTYYGWYQQKSPGSAPVTVIHSDDKRPSDIPSRFSGSASGSAATLTITGVRVEDEAVYFCGAYDGRTYINTFGAGTTLTVL")
0.00014

Batch request: koff for each of the following binders.
1. S73 (scFv, V domains shown, also called clone 73) VH: DVQLVESGGGVVRPGESLRLSCEASGFTFSSNAMSWARQAPGKGLEWVAGISSGSDTYYGDSVKGRLTISRDNSKNILYLQMNSLTAEDTAVYYCARETWNHLFDYWGLGTLVTVSS VL: ALTQPASVSANPGETVKITCSGGIYSSYYYAWYQQKSPGSAPVTLIYSDDKRPSNIPSRFSGSASGSTATLTITGVRAEDEAVYFCGGYDQSSYTNPFGAGTTLTVL
2. S206 (scFv, V domains shown) VH: DVQLVESGGAVVRPGETLRLSCTASGFTFSSYAMSWVRQAPGKGLEWVSGISASGSDTYYADSVKGRSTISRDNSKNTLYLRMSSLTAEDTAVYYCARETWNHLFDYWGLGTLVTLSS VL: ALTQPASVSANPGETVKITCSGGGTSSYYGWYQQKSPGSAPVTLIHSDDKRPSDIPSRFSGSASGSTATLTITGVQAEDEAVYYCGGYDYTTYVNTFGAGTTLTVL

1. 1.9e-05
2. 3.5e-05
